Taken from the array DNA melting data of Ke et al. (doi:10.1101/2024.01.08.574731).

Would you kindly list Tm for each of these sequences?
- method notes: melting temperature; fluorescence melt of hairpins on a sequencing array, two-state fit, raised by 9.35 °C to match UV melts
- protocol conditions: sodium 0.088 M
Numbers only, in °C.

Take a look at these entries with their results.
sequence_text="GATCCCGCTCGGGATC ((((((....))))))" experimental_readout=Tm reported_measurement=65.8
sequence_text="GCACCCGAAAGGGATTGC ((((((....)))..)))" experimental_readout=Tm reported_measurement=42.3
sequence_text="GTAACTGAAAAGTTAC ((((((....))))))" experimental_readout=Tm reported_measurement=50.9
sequence_text="GATATCCGAAAGGAATC (((.(((....))))))" experimental_readout=Tm reported_measurement=30.2
sequence_text="GTTGCCGAAAGGCACAAC ((((((....)))..)))" experimental_readout=Tm reported_measurement=35.7
sequence_text="GGTGCTCGAAAGAGACC (((.(((....))))))" experimental_readout=Tm reported_measurement=46.5

Q) Tm for GGACCAGGAAACCAGTCC ((((..(....)..)))) ?
A) 33.9
